Each recorded value in this set is attributed to the Biogen ADME set (Fang et al. 2023).

assay-metric: intrinsic clearance, human liver microsomes (L/h/kg)

[a] CC(=O)Nc1sc2c(c1-c1nc3ccccc3s1)CCN(C(C)C)C2
[b] Cc1cccc(NC(=O)CN(C)Cc2nc3ccc(Cl)cc3c(=O)[nH]2)c1C
Lookup: Lab notebook, comparison: a versus b , higher intrinsic clearance, human liver microsomes goes to which? Selection: enter the item's label.
Found: b

---

assay-metric: intrinsic clearance, rat liver microsomes (mL/min/kg)

Previously resolved entries follow.
- COC(=O)c1cc(F)c(C)c(NC(=O)CCCc2ccccn2)c1: 1680
- CC(C)(C)c1ccc(CN2CCC(C(N)=O)CC2)cc1: 144
- Cc1ccc(F)cc1CNc1cc(C(=O)N(C)C)ccn1: 399

[P] Cc1ccc(-c2ccc(N(C)CCO)nn2)c(-n2cccn2)c1
[Q] CC1(COc2ccc3c(c2)ncn3-c2ccc3cccc(N4CCC(N)CC4)c3n2)COC1
[R] CNCc1cc(N(C)C)nc(C2CCCN2C(=O)C2CN(Cc3ccc(Cl)cc3)C2)n1 (stereo unspecified)
[S] Nc1nc(N)c2nc(-c3cccc(O)c3)c(-c3cccc(O)c3)nc2n1
[T] Cn1cc(C#N)cc1-c1nc(C2CC2)nn1CCc1ccccc1
Lookup: Hey, quick one: sort these by intrinsic clearance, rat liver microsomes, largest value first please. In plain terms: list the labels in the order you were asked to.
Found: T, Q, S, P, R

[1] Cc1cc(Nc2nnc(C)s2)cc(C2CN(C(=O)Cc3csc(C)n3)CCO2)n1 (stereo unspecified)
[2] COc1cccc(OCCCn2cncc2-c2cc3c(cc2C)n(C)c(=O)n3C)c1
Lookup: Lab notebook, comparison: 1 versus 2 , higher intrinsic clearance, rat liver microsomes goes to which? Selection: enter the item's label.
Found: 2

---

assay-metric: intrinsic clearance, rat liver microsomes (L/h/kg)

* CCOCCNC(=O)c1cccc(-c2cc(F)ccc2OC)c1 | 49.1

[I] Cc1cc(Nc2ccccn2)cc(C2CCCN(CC(=O)Nc3ncc(C)s3)C2)n1 (stereo not drawn)
[II] CN(CC(=O)NC1(C#N)CCCC1)c1ccccc1
Lookup: Lab notebook, comparison: I versus II , higher intrinsic clearance, rat liver microsomes goes to which? Selection: enter the item's label.
Found: I

---

assay-metric: intrinsic clearance, human liver microsomes (mL/min/kg)

* CC(C)OCCS(=O)(=O)N1CCc2ccccc2CC1 | 134

[1] CNC(=O)C1(Cc2ccc(-c3cccnc3)cc2)CCN(Cc2cccc(F)c2)C1 (configuration not stated)
[2] CCOCC(=O)N1CCC2(CCc3ccccc3O2)CC1
Lookup: Please choose the item with the lower intrinsic clearance, human liver microsomes value from this pair: 1 and 2 Selection: enter the item's label.
Found: 2
(2: 10.3 mL/min/kg, 1: 280 mL/min/kg)

---

assay-metric: MDR1-MDCK efflux ratio

Previously resolved entries follow.
• c1ccc(-c2n[nH]c(C3CCN(c4cnc5ccccc5n4)CC3)n2)cc1 = 1.2
• CCOC(=O)c1cccnc1SCc1cccnc1 = 0.646
• Cc1ccc(-c2nc(CN3CCOCC3)n(Cc3ccc(F)cc3)n2)o1 = 4.11
• CC(C)Nc1ccc(-c2cc3c(cc2CO)OCCO3)cn1 = 0.775
• Cc1cc(C(=O)NC2CCN(c3nc(-c4cccs4)nc4ccccc34)CC2)on1 = 0.753
• Cc1cccc(N(C)Cc2cnc(N(C)C)nc2)n1 = 0.769

[A] Cn1ncc2cc(-c3ccnc4[nH]ccc34)ccc21
[B] O=C(C1CC1)N1CCC(CNS(=O)(=O)N2CCCCCC2)CC1
[C] CSc1ccccc1S(=O)(=O)NC1CCC(CN(C)C)CC1 (stereo unspecified)
[D] Cc1nn(-c2ccc(C(=O)O)cc2C#Cc2ccccc2)c(C)c1C
[E] O=C(CN1CCCC(c2cncc(-c3cccc(Cl)c3)n2)C1)N1CCCC1 (stereo unspecified)
Lookup: Hey, quick one: sort these by MDR1-MDCK efflux ratio, largest value first please. In plain terms: list the labels in the order you were asked to.
Found: B, C, D, E, A
